TGT: MAGI2_4, Q86UL8
Sequence (Q86UL8 772-865): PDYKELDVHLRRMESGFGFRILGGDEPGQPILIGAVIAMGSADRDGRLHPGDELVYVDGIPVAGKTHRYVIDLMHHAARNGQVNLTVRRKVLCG
TEST_DESCRIPTION: holdup assay
Parameters: key: below the threshold = too weak to quantify, mostly under pKd 3.1 to 4
SETTINGS: plain residues with an end cap or a label only (N-terminal biotin on a linker: ado-ado)
VALUE_TYPE: pKd

Previously resolved entries follow.
> print(dat)
                        binder       value.observed
1   YNNCLEILRV [DCAF7, P61962]  below the threshold
2   VDSTVKVWTC [TRAF7, Q6Q0C0]  below the threshold
3   SSALYGESDL [ACTN2, P35609]  below the threshold
4  QSARLWETSI [ADAM22, Q9P0K1]  below the threshold
5    LGRSTPQSEV [DGKH, Q86XP1]                 3.52
6   EVEEFPETSV [TRPV3, Q8NET8]                 3.68
7   SAAKVLTSMC [GHRHR, Q02643]  below the threshold

Could you now consider this next binder?
Item NLSIEKETKL [ASNSD1, Q9NWL6] : provide pKd
below the threshold

Data origin: paper PMC9482650
